- assay system: human ether-à-go-go-related gene (hERG) potassium channel (human, UniProt Q12809);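 also: peak tail current of the secondary pulse compared with the same well before compound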
- Sequence (Q12809 whole entry, looked up): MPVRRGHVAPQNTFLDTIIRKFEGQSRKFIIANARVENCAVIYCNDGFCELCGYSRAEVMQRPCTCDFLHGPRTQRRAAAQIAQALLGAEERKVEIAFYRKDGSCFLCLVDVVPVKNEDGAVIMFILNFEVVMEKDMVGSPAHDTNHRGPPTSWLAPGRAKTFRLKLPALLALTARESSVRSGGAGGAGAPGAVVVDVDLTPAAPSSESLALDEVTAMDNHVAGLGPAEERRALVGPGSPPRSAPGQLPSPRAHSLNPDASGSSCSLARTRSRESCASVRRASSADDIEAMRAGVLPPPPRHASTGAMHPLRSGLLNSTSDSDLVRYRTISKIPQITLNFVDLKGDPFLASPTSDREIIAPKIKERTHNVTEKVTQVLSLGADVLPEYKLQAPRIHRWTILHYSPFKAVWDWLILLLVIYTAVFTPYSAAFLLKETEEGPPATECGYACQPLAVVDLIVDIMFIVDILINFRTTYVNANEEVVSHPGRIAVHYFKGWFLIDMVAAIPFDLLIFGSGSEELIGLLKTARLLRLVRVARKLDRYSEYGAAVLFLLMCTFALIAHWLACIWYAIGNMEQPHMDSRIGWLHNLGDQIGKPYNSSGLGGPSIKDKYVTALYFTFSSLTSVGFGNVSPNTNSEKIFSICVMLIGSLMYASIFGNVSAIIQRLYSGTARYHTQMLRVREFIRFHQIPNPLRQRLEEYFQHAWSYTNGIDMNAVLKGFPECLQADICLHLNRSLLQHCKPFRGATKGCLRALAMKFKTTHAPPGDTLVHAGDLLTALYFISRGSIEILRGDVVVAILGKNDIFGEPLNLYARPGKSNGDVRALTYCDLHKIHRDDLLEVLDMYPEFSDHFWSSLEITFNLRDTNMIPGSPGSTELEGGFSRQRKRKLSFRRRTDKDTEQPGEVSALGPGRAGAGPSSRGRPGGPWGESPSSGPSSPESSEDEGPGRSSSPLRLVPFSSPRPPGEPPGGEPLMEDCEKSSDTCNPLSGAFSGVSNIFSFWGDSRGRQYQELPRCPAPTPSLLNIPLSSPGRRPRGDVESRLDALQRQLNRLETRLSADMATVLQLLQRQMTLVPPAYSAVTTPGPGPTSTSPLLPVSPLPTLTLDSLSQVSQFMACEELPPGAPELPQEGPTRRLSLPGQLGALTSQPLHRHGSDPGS
- assay protocol: primary screen, population patch clamp on CHO cells stably expressing hERG; higher = less effect of the substance
Out of some 310,000 compounds screened, about 14,000 (4.5%) showed an effect of 50% or more. Effects have a minus sign here. The sample as a whole holds a higher share of strong results than the screen did.
Each entry below carries its recorded hERG current change (%, negative = inhibition) at 10uM.
measure: hERG current change (%, negative = inhibition) at 10uM (%)

compound	unit string	readout number
COCCN(C(=O)CNC(=O)c1ccco1)C(C(=O)NC1CCCCC1)c1cccnc1 (stereo not drawn)	%	20.1
CN1CCN(c2ccc(Cl)cc2NC(=O)CCN2C(=O)c3ccccc3C2=O)CC1	%	-7.06
COC(=O)c1ccccc1S(=O)(=O)Nc1ccc(OC)nc1	%	-0.17
CC1CCN(C(=O)COc2ccc(S(=O)(=O)N3CCOCC3)cc2)CC1	%	-1.39
O=c1oc2ccccc2c(Cl)c1CN1CCCCC1	%	24.1
Cc1onc(-c2c(F)cccc2Cl)c1C(=O)ONC(=O)c1ccccc1	%	8.85
Cc1ccc(S(=O)(=O)Nc2ccc3nc(-c4cccn4C)[nH]c3c2)cc1	%	-79.3
O=c1oc2ccccc2c(O)c1CN1CCCCC1	%	13.9
CCCn1c(=O)c(Cc2ccccc2)c(O)c2ccccc21	%	1.06
O=c1oc2ccccc2c(Nc2ccccc2)c1CN1CCCCC1	%	-57.1
Cn1cccc1-c1nc2ccc([N+](=O)[O-])cc2[nH]1	%	4.4
Nc1c(N2CCN(c3ccccc3)CC2)c2ccccc2oc1=O	%	-50.1
O=C(CN(c1ccccc1)S(=O)(=O)c1ccccc1)Nc1ccc(F)cc1	%	22.6
Cn1cccc1-c1nc2ccc(NC(=O)c3cccs3)cc2[nH]1	%	-53.3
O=C(Nc1ccc(-c2nc3ccc(NC(=O)c4cccs4)cc3[nH]2)cc1)c1cccs1	%	18.1
Cn1c(=O)[nH]c(=O)c2c1nc(OC(=O)c1ccccc1)n2CC(O)COc1ccccc1 (stereo not drawn)	%	23.2
Nc1c(N2CCCC2)c2ccccc2oc1=O	%	2.82
Cc1ccc(C)c(N2CCN(S(=O)(=O)c3ccc4c(c3)OCCO4)CC2)c1	%	3.7
O=C(O)CCN1CCc2ccccc2C1c1ccncc1 (stereo not drawn)	%	13.2
Cc1ccc(-c2nc3ccc(NS(=O)(=O)c4ccccc4)cc3[nH]2)o1	%	-47.3
Cc1ccc(NC(=O)CSCC(=O)Nc2cc(Cl)ccc2N2CCN(C)CC2)cc1	%	-53.1
